# PROCEDURE DETAILS: Pharmacokinetic assessment in dogs
# Type: in vivo
# CONDITION DESCRIPTION: male, beagle, dog, blood; dogs, 50 mg/kg bid oral capsule
MEASURE NAME: Cmax

Quick check: Cmax of CCOC(=O)[C@]1(c2ccccc2)N=C(c2ccc(OC)cc2)N(Cc2ccccc2)[C@@H]1c1ccc(NCc2ccccc2)cc1 ?
1600 nM

* * *

# PROCEDURE DETAILS: Pharmacokinetic assessment in CD-1 mice
# Type: in vivo
# CONDITION DESCRIPTION: male, CD-1, mouse, plasma, po, 100 mg/kg, CD-1 mice, 100 mg/kg oral gavage; read-out: Tmax following the first dose
MEASURE NAME: Tmax (h)
Use h as the unit, but write only the number.

Give its Tmax value. Item: CCOC(=O)[C@]1(c2ccccc2)N=C(c2ccc(OC)cc2)N(Cc2ccccc2)[C@@H]1c1ccc(NCc2ccccc2)cc1 [TCH-165]
2
